- Tested on: root-knot nematodes (Meloidogyne spp.)
- procedure_details: Root-knot nematocide test
- Type: in vivo
- settings: 2 lb/A

smiles_structure | target_or_system | Percent Control (nematode) [%]
CNC(=O)ON=C(C1SCCS1)C(C)(C)C | root-knot nematodes (Meloidogyne spp.) | 60
CNC(=O)ON=C(CSC)C(C)(C)SC | root-knot nematodes (Meloidogyne spp.) | 100
CNC(=O)ON=C(CSCCSC)C(C)(C)C | root-knot nematodes (Meloidogyne spp.) | 60
CNC(=O)ON=C(CN=[N+]=[N-])C(C)(C)C | root-knot nematodes (Meloidogyne spp.) | 0
